# subject_of_test: human cloned CHRM2 receptor (Homo sapiens)
# Sequence (P08172 whole entry): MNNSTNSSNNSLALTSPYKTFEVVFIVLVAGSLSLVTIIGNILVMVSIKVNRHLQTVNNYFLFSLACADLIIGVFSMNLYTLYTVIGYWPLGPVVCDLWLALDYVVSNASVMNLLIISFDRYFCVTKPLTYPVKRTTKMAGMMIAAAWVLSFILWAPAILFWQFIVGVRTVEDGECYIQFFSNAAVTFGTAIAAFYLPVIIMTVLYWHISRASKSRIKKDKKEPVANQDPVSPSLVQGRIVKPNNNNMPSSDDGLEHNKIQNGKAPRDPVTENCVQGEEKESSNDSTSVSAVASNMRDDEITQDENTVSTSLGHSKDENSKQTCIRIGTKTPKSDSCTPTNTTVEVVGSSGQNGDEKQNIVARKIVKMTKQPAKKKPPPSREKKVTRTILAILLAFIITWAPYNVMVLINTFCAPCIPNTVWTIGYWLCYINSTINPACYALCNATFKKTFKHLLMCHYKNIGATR
# protocol_details: CHRM2 Ca++ Flux Assay (M2_CHO cells, agonist mode)
# details: M2 CHO cells, agonist mode; geometric mean if tested more than once; read-out: M2 FDSS EC50
pEC50: −log10 of the molar value.
measured_attribute: pEC50

- molecule: "CC1(C)C[C@@H](Oc2ccc(F)cc2C2CCN([C@@H]3COC4(C3)CN(c3nnco3)C4)CC2)CO1 (single isomer, unassigned) [Example 2N]"
  measured_attribute: "pEC50"
  test_result: 5.37
- molecule: "c1ccc(C2CCN([C@@H]3COC4(C3)CN(c3ncco3)C4)CC2)c(OC2CC3(COC3)C2)c1"
  measured_attribute: "pEC50"
  test_result: "< 4.60"

Now for a further molecule.
Ask: Determine from records and report pEC50 for CC(C)(O)COc1ccc(F)cc1C1CCN([C@@H]2COC3(C2)CN(c2ncns2)C3)CC1
Result: < 4.60

---

# subject_of_test: human cloned CHRM4 receptor (Homo sapiens)
# Construct: expressed in transfected cells; host or cells: CHO-K1 (M4_CHO)
# Sequence (P08173 whole entry): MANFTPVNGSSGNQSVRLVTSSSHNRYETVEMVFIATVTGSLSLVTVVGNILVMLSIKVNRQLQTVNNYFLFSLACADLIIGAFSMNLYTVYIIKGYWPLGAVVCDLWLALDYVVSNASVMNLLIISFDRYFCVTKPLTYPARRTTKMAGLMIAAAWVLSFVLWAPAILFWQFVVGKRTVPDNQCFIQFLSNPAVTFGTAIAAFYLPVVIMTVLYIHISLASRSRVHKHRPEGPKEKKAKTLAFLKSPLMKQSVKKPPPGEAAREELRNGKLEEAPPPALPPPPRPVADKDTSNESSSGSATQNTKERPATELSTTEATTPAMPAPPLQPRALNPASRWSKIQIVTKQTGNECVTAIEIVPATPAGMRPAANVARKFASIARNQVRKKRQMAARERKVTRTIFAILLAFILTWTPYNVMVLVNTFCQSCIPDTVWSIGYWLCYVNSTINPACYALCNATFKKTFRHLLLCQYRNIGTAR
# protocol_details: CHRM4 Ca++ Flux Assay (M4_CHO cells, agonist mode)
# Assay type: cell-based
# details: Percent Activity (PA), read-out: M4 FDSS PA %
Range-based classes on measured Emax: low = under 70%, intermediate = from 70% up to 80%, high = 80% and over

- substance_smiles: "Fc1ccc(OCC2COC2)c(C2CCN([C@@H]3COC4(C3)CN(c3nnco3)C4)CC2)c1"
  discrete_label: "high"
- substance_smiles: "Fc1ccc(O[C@H]2CCOC2)c(C2CCN([C@@H]3COC4(C3)CN(c3nnco3)C4)CC2)c1"
  discrete_label: "intermediate"

Ask: Given CC(C)(O)CCOc1ccc(F)cc1C1CCN([C@@H]2COC3(C2)CN(c2nnco2)C3)CC1 , name the class its Emax places it in.
Result: low

Ask: Given Fc1cc(OC2COC2)c(C2CCN([C@@H]3COC4(C3)CN(c3ncco3)C4)CC2)cc1F , name the class its Emax places it in.
Result: low

Ask: Given COC(C)(C)CCOc1ccc(F)cc1C1CCN([C@@H]2COC3(C2)CN(c2nnco2)C3)CC1 , name the class its Emax places it in.
Result: low

Ask: Given COC(C)(C)CCOc1ccc(F)cc1C1CCN([C@@H]2COC3(C2)CN(c2nncs2)C3)CC1 , name the class its Emax places it in.
Result: low

Ask: Given COc1ccc(F)cc1C1CCN([C@@H]2COC3(C2)CN(c2nnco2)C3)CC1 , name the class its Emax places it in.
Result: high

Ask: Given Fc1ccc(OC[C@@H]2CCOC2)c(C2CCN([C@@H]3COC4(C3)CN(c3nnco3)C4)CC2)c1 , name the class its Emax places it in.
Result: high

Ask: Given Fc1ccc(OC2CCOCC2)c(C2CCN([C@@H]3COC4(C3)CN(c3nnco3)C4)CC2)c1 , name the class its Emax places it in.
Result: high

Ask: Given Fc1cc(OC2COC2)c(C2CCN([C@@H]3COC4(C3)CN(c3nnco3)C4)CC2)cc1F , name the class its Emax places it in.
Result: low

Ask: Given Fc1ccc(C2CCOCC2)c(C2CCN([C@@H]3COC4(C3)CN(c3ncco3)C4)CC2)c1 , name the class its Emax places it in.
Result: intermediate

Ask: Given COc1cc(F)ccc1C1CCN([C@@H]2COC3(C2)CN(c2nncs2)C3)CC1 , name the class its Emax places it in.
Result: low

Ask: Given OC1(COc2ccc(F)cc2C2CCN([C@@H]3COC4(C3)CN(c3nnco3)C4)CC2)COC1 , name the class its Emax places it in.
Result: high
